test system: Hs-578T; assay: NCI tumour cell line growth inhibition, 48 h
Activity calls are given as the source filed them. Cut-off read from the data, not from the text of the source: active = GI50 up to about 1.1 µM and inactive = higher.
Select the matching outcome among yes (active), no (inactive)

Example entries begin here.
compound=CC(=O)O[C@H]1/C(=C/c2ccc(N(C)C)cc2)C[C@H]2[C@@H]3CC=C4C[C@@H](N5CCCC5)CC[C@]4(C)[C@H]3CC[C@]12C group=no
compound="C/C=C(\\N=C=S)C(=O)OC1C(COC(C)=O)OC([C@]2(O)CC(=O)C(N)=C(C(=O)O)C2=O)C(O)C1OC1CC(OC)C(O)([C@@H](C)OC(=O)[C@@H](C)CC)C(C)O1 (some centres undefined)" group=no
compound=CN(C)c1nncc2[nH]cnc12 group=no
compound=COc1ccc2nc3c([N+](=O)[O-])ccc(NCCCN(C)C)c3c(N)c2c1 group=no
compound=O=C(Nc1ccccc1)N1CCN(C(=O)Nc2ccccc2)C1=S group=no
compound=O=C(O)c1cc(/N=N/c2ccc([As](=O)(O)O)cc2)ccc1O group=no
compound="OC(c1cc(C23CC4CC(CC(C4)C2)C3)nc2c(Cl)cc(Cl)cc12)C1CCCCN1 (centres undefined)" group=no
compound=COc1ccc(OC)c(-c2nc3n(c2/C=C2/C(=O)Nc4ccccc42)CCS3)c1 group=no
compound=CC(C)=CC[C@]12CCN[C@H]1N(S(=O)(=O)c1ccccc1)c1ccccc12 group=no
compound=c1csc(-c2cc(-c3ccsc3)c(-c3cccs3)s2)c1 group=no

INPUT: # fetch the recorded call for CC1=C(C#N)C2C(=C(N)Oc3ccccc32)C(N)=N1 (centres undefined) here
OUTPUT: no

INPUT: Next compound: CCCCCC(/C=N/N)C(O)(C(F)(F)F)C(F)(F)F (centres undefined)
OUTPUT: no

INPUT: Next compound: COC(=O)/C=C(\S/C(=C(/c1ccc(OC)cc1)n1cc(C(=O)OC)c(C(=O)OC)n1)c1ccc(OC)cc1)C(=O)OC
OUTPUT: no

INPUT: Next compound: O=C(O)CC1NC(/C(=C/c2ccccc2O)NC(=O)c2ccccc2)OC1=O (centres undefined)
OUTPUT: no

INPUT: Next compound: O=C(NC(C(F)(F)F)(C(F)(F)F)P(=O)(Cc1ccccc1)Cc1ccccc1)C(C(F)(F)F)C(F)(F)F
OUTPUT: no

INPUT: Next compound: O=[N+]([O-])c1sc2ccc(Cl)cc2c1Nc1ccc(Cl)cc1
OUTPUT: no

INPUT: Next compound: CC(=O)OCC1OC(O/C=C(\CN=[N+]=[N-])C(C)=O)C(OC(C)=O)C(OC(C)=O)C1OC(C)=O (centres undefined)
OUTPUT: no

INPUT: Next compound: Cn1c(=S)[nH]c(N)c(Cc2ccccc2)c1=O
OUTPUT: no

INPUT: Next compound: COC1/C=C\C=C(/C)C(=O)Nc2cc3nc4ccc(Br)cc4oc-3c(c2=O)CC(C)CC(OC)C(O)C(C)/C=C(\C)C1OC(N)=O (centres undefined)
OUTPUT: yes

---

system: IGROV-1; experiment: NCI tumour cell line growth inhibition, 48 h
Calls of active or inactive are those of the source. No stated cut-off is given here; in the data, active = GI50 up to about 1.1 µM and inactive = higher.
Result type: GI50

Known GI50 results, listed for orientation:
molecule=O=C(Oc1c(Cl)cc(C2(c3cc(Cl)c(OC(=O)c4ccccc4)c(Cl)c3)CCCCC2)cc1Cl)c1ccccc1 observed_value="10.6 µM (inactive)"
molecule=O=Cc1cn(CCCCCCCCCCCCn2cc(C=O)c3ccccc32)c2ccccc12 observed_value="> 100 µM (inactive)"
molecule="CC(O)CNC(=O)C(C)Oc1ccc(OCC2CCCCC2)cc1 (configuration not stated)" observed_value="> 100 µM (inactive)"
molecule=CCN(CC)CCOC(=O)CCN1CC2CCC(CC2)C1 observed_value="> 100 µM (inactive)"
molecule=O=S(=O)(c1cnccc1N1CCN(CCO)CC1)N1CCCC1 observed_value="> 100 µM (inactive)"
molecule="O=C1CSC(c2cc3cc(Br)ccc3nc2Cl)N1c1ccc(F)c(Cl)c1 (configuration not stated)" observed_value="18.6 µM (inactive)"

INPUT: Recorded GI50 for COc1ccc(C(Cl)=C(c2ccc(OCCN(C)C)cc2)c2ccc(OCCN(C)C)cc2)cc1 , please?
OUTPUT: 3.03 µM (inactive)

INPUT: Next molecule: CN(C)CCNC(=O)c1cccc2c(=O)c3ccccc3oc12
OUTPUT: 40.6 µM (inactive)

INPUT: Next molecule: COc1cc2[nH]c(=O)[nH]c2c2c(C)c[nH]c12
OUTPUT: > 100 µM (inactive)

INPUT: Next molecule: CC1(C)C/C=C\CCC(O)C(O)CCC(C)(C)C1=O (configuration not stated)
OUTPUT: > 100 µM (inactive)
